# system under test: hSTING-R232 (aa140-379) (Homo sapiens, UniProt Q86WV6, H232R)
# Sequence (Q86WV6 140-379 H232R): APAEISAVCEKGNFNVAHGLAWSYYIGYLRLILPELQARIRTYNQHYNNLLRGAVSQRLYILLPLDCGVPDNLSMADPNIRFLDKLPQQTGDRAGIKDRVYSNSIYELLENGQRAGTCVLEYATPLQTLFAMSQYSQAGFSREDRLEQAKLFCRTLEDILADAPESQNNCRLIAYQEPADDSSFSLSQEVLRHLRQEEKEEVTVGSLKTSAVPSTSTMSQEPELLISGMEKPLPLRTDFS
# procedure text: STING differential scanning fluorimetry (DSF) assay, hSTING WT
# cond: shift in melting temperature apo vs ligand-bound
measured metric: WT_DSF_hSWAT Tm Shift (° C.)

>>> df
                         structure_notation                         system_under_test  experimental_value
0  CN(C)c1c(Cl)ccc2c(=O)c3ccc(-c4cc[nH]c(=O)c4)cc3n(CC(=O)O)c12  hSTING-R232 (aa140-379) (Homo sapiens, UniProt Q86WV6, H232R)      D (“D” >7° C.)
1  CN(C)c1c(Cl)ccc2c(=O)c3ccc(C4=CCOC4)cc3n(CC(=O)O)c12  hSTING-R232 (aa140-379) (Homo sapiens, UniProt Q86WV6, H232R)      D (“D” >7° C.)
2  Cc1cc2c(cc1Cl)c(=O)c1ccc(Cl)c(N(C)C)c1n2CC(=O)O  hSTING-R232 (aa140-379) (Homo sapiens, UniProt Q86WV6, H232R)   C (“C” = 2-7° C.)
3  CN(C)c1c(Cl)ccc2c(=O)c3ccc(C(C)(C)C#N)cc3n(CC(=O)O)c12  hSTING-R232 (aa140-379) (Homo sapiens, UniProt Q86WV6, H232R)      D (“D” >7° C.)
4  CN(C)c1c(Cl)ccc2c(=O)c3cc(Cl)c(Nc4c(F)cccc4F)cc3n(CC(=O)O)c12  hSTING-R232 (aa140-379) (Homo sapiens, UniProt Q86WV6, H232R)      D (“D” >7° C.)

query: Please look up its WT_DSF_hSWAT Tm Shift (° C.): COc1c(Cl)ccc2c(=O)c3ccc(C4=CCNC4)cc3n(CC(=O)O)c12
result: C (“C” = 2-7° C.)

query: Entry CCC(C)(C)c1ccc2c(=O)c3ccc(Cl)c(N(C)C)c3n(CC(=O)O)c2c1 please
result: D (“D” >7° C.)

====

# system under test: human STING protein (140-379), WT (Homo sapiens, UniProt Q86WV6, H232R)
# Sequence (Q86WV6 140-379 H232R): as above
# procedure text: Radiometric filtration binding competition assay (FBA), hSTING-WT
# cond: WT-hSWAT IC50 (μM), WT_FBA_HIS-SUMO-hSWAT; wild-type human STING; competition with [H3] 2′3′cGAMP
Recorded IC50 values for a group of molecules are listed next.

These solved cases illustrate the format of a correct answer.
                                   molecule  experimental_value
0  CN(C)c1c(Cl)ccc2c(=O)c3cc(-c4ccccc4)ccc3n(CC(=O)O)c12 [Compound 30]             < 20 µM
1  CCc1ccc2c(=O)c3ccc(Cl)c(N(C)C)c3n(CC(=O)O)c2c1 [Compound 37]             < 20 µM
2  CN(C)c1c(Cl)ccc2c(=O)c3ccc(-c4cccnc4)cc3n(CC(=O)O)c12 [Compound 9]             < 20 µM
3  CN(C)c1c(Cl)ccc2c(=O)c3ccc(C4=CCN(C(=O)OC(C)(C)C)C4)cc3n(CC(=O)O)c12 [Compound 25]             < 20 µM
4  O=C(O)Cn1c2ccccc2c(=O)c2ccc(Cl)c(O)c21 [Compound 63]        20 to 100 µM

query: Please look up its IC50: Cc1ccc2c(=O)c3ccc(Cl)c(N(C)C)c3n(CC(=O)NS(C)(=O)=O)c2c1 [Compound 55]
result: 20 to 100 µM

query: Entry COc1ccc2c(=O)c3ccc(Cl)c(N(C)C)c3n(CC(=O)O)c2c1 [Compound 2] please
result: 20 to 100 µM

query: Entry CN(C)c1c(Cl)ccc2c(=O)c3ccc(-n4cccn4)cc3n(CC(=O)O)c12 [Compound 6] please
result: < 20 µM

query: Entry CCC(C)(C)c1ccc2c(=O)c3ccc(Cl)c(N(C)C)c3n(CC(=O)O)c2c1 [Compound 22] please
result: < 20 µM

query: Entry CC(C)c1ccc2c(=O)c3ccc(Cl)c(N(C)C)c3n(CC(=O)O)c2c1 [Compound 58] please
result: < 20 µM

query: Entry COc1cc2c(=O)c3ccc(Cl)c(N(C)C)c3n(CC(=O)O)c2cc1OC [Compound 1] please
result: < 20 µM

====

# system under test: hSTING-R232 (aa140-379) (Homo sapiens, UniProt Q86WV6, H232R)
# procedure text: STING differential scanning fluorimetry (DSF) assay, hSTING WT
# cond: shift in melting temperature apo vs ligand-bound
measured metric: WT_DSF_hSWAT Tm Shift (° C.)

>>> print(df.to_string())
                                   compound  experimental_value
0  COc1c(Cl)ccc2c(=O)c3ccc(C4=CCC(N5CCN(C)CC5)CC4)cc3n(CC(=O)O)c12 (stereo not shown)   C (“C” = 2-7° C.)
1  CCc1cc2c(cc1Cl)c(=O)c1ccc(Cl)c(N(C)C)c1n2CC(=O)O   C (“C” = 2-7° C.)
2  C=C(C)c1ccc2c(=O)c3ccc(Cl)c(OC)c3n(CC(=O)O)c2c1      D (“D” >7° C.)
3  CN(C)c1c(Cl)ccc2c(=O)c3ccc(-c4cccnc4)cc3n(CC(=O)O)c12   C (“C” = 2-7° C.)
4  COc1c(Cl)ccc2c(=O)c3ccc(C4=CCN(C)CC4)cc3n(CC(=O)O)c12   C (“C” = 2-7° C.)

Proceed to the following item.
query: Please look up its WT_DSF_hSWAT Tm Shift (° C.): COc1c(Cl)ccc2c(=O)c3ccc(C4=CCN(C(=O)OC(C)(C)C)C4)cc3n(CC(=O)O)c12
result: D (“D” >7° C.)

====

# system under test: hSTING-R232 (aa140-379) (Homo sapiens, UniProt Q86WV6, H232R)
# procedure text: STING differential scanning fluorimetry (DSF) assay, hSTING WT
# cond: shift in melting temperature apo vs ligand-bound
measured metric: WT_DSF_hSWAT Tm Shift (° C.)

In [3]: df
Out[3]:
                                   compound                         system_under_test               measured_metric  experimental_value
0  COc1c(Cl)ccc2c(=O)c3ccc(C4CCC(N5CCN(C)CC5)CC4)cc3n(CC(=O)O)c12 (stereo not shown)  hSTING-R232 (aa140-379) (Homo sapiens, UniProt Q86WV6, H232R)  WT_DSF_hSWAT Tm Shift (° C.)   C (“C” = 2-7° C.)
1  CCNc1ccc2c(=O)c3ccc(Cl)c(OC)c3n(CC(=O)O)c2c1  hSTING-R232 (aa140-379) (Homo sapiens, UniProt Q86WV6, H232R)  WT_DSF_hSWAT Tm Shift (° C.)   C (“C” = 2-7° C.)
2  CN(C)c1c(Cl)ccc2c(=O)c3ccc(C4=CCN(C(=O)OC(C)(C)C)CC4)cc3n(CC(=O)O)c12  hSTING-R232 (aa140-379) (Homo sapiens, UniProt Q86WV6, H232R)  WT_DSF_hSWAT Tm Shift (° C.)      D (“D” >7° C.)
3  CN(C)c1c(Cl)ccc2c(=O)c3cc(-c4ccccc4)ccc3n(CC(=O)O)c12  hSTING-R232 (aa140-379) (Homo sapiens, UniProt Q86WV6, H232R)  WT_DSF_hSWAT Tm Shift (° C.)      D (“D” >7° C.)
4  CC(C)c1ccc2c(=O)c3c(O)cc(Cl)c(N(C)C)c3n(CC(=O)O)c2c1  hSTING-R232 (aa140-379) (Homo sapiens, UniProt Q86WV6, H232R)  WT_DSF_hSWAT Tm Shift (° C.)      D (“D” >7° C.)

query: Please look up its WT_DSF_hSWAT Tm Shift (° C.): CC/C=C(\CC)c1ccc2c(=O)c3ccc(Cl)c(N(C)C)c3n(CC(=O)O)c2c1
result: D (“D” >7° C.)

query: Entry CN(C)c1c(Cl)ccc2c(=O)c3ccc(-c4cnoc4)cc3n(CC(=O)O)c12 please
result: D (“D” >7° C.)

query: Entry CN(C)c1c(Cl)ccc2c(=O)c3ccc(C4CCC4)cc3n(CC(=O)O)c12 please
result: D (“D” >7° C.)

query: Entry CN(C)c1c(Cl)ccc2c(=O)c3cc(Cl)c(C(C)(C)C#N)cc3n(CC(=O)O)c12 please
result: D (“D” >7° C.)

====

# system under test: hSTING-R232 (aa140-379) (Homo sapiens, UniProt Q86WV6, H232R)
# procedure text: STING differential scanning fluorimetry (DSF) assay, hSTING WT
# cond: shift in melting temperature apo vs ligand-bound
measured metric: WT_DSF_hSWAT Tm Shift (° C.)

These solved cases illustrate the format of a correct answer.
In [3]: df
Out[3]:
                                   compound  experimental_value
0  CN(C)c1c(Cl)ccc2c(=O)c3cc(Cl)c(Br)cc3n(CC(=O)O)c12 [Compound 3]   C (“C” = 2-7° C.)
1  CN(C)c1c(Cl)ccc2c(=O)c3cc(Cl)c(C(C)(C)C)cc3n(CC(=O)O)c12 [Compound 88]      D (“D” >7° C.)
2  CN(C)c1c(Cl)ccc2c(=O)c3ccc(Br)cc3n(CC(=O)O)c12 [Compound 20]      D (“D” >7° C.)
3  Cc1ccc2c(c1)c(=O)c1ccc(Cl)c(N(C)C)c1n2CC(=O)O [Compound 31]   C (“C” = 2-7° C.)
4  COc1cc2c(=O)c3ccc(Cl)c(N(C)C)c3n(CC(=O)O)c2cc1OC [Compound 1]   B (“B” = 0-2° C.)

query: Please look up its WT_DSF_hSWAT Tm Shift (° C.): CN(C)c1c(Cl)ccc2c(=O)c3ccc(Nc4ccncc4)cc3n(CC(=O)O)c12 [Compound 81]
result: D (“D” >7° C.)

query: Entry CN(C)c1c(Cl)ccc2c(=O)c3ccc(C(C)(C)C)cc3n(CC(=O)NS(=O)(=O)C3CC3)c12 [Compound 42] please
result: D (“D” >7° C.)

query: Entry COc1c(Cl)ccc2c(=O)c3ccc(F)cc3n(CC(=O)O)c12 [Compound 67] please
result: C (“C” = 2-7° C.)

query: Entry CCc1cccc2c(=O)c3ccc(C)cc3n(CC(=O)O)c12 [Compound 38] please
result: B (“B” = 0-2° C.)

query: Entry COCCOc1cccc2c(=O)c3ccc(Cl)c(OC)c3n(CC(=O)O)c12 [Compound 60] please
result: B (“B” = 0-2° C.)

query: Entry C=C(C)c1c(Cl)ccc2c(=O)c3ccc(C)cc3n(CC(=O)O)c12 [Compound 47] please
result: D (“D” >7° C.)

query: Entry O=C(O)Cn1c2ccccc2c(=O)c2ccc(Cl)c(-c3cccs3)c21 [Compound 62] please
result: D (“D” >7° C.)

query: Entry C=C(C)c1ccc2c(=O)c3ccc(Cl)c(N(C)C)c3n(CC(=O)O)c2c1 [Compound 24] please
result: D (“D” >7° C.)

query: Entry CN(C)c1c(Cl)ccc2c(=O)c3ccc(-c4ccccc4)cc3n(CC(=O)O)c12 [Compound 11] please
result: D (“D” >7° C.)

query: Entry CN(C)c1c(Cl)ccc2c(=O)c3ccc(-c4ccco4)cc3n(CC(=O)NS(C)(=O)=O)c12 [Compound 56] please
result: D (“D” >7° C.)

query: Entry CN(C)c1c(Cl)ccc2c(=O)c3ccc(C4(C#N)CC4)cc3n(CC(=O)O)c12 [Compound 84] please
result: D (“D” >7° C.)

Hello, the source for this data is patent US20220227761A1, in case you need it.
